Recorded self-splicing fitness (ln) values for a group of sequences are listed next.
protocol notes: self-splicing fitness, log relative to wild type (ln ratio); higher = more splicing; Tetrahymena group I intron in knt gene, E. coli kanamycin selection, DiMSum; sequences stand for … in CUCUCU…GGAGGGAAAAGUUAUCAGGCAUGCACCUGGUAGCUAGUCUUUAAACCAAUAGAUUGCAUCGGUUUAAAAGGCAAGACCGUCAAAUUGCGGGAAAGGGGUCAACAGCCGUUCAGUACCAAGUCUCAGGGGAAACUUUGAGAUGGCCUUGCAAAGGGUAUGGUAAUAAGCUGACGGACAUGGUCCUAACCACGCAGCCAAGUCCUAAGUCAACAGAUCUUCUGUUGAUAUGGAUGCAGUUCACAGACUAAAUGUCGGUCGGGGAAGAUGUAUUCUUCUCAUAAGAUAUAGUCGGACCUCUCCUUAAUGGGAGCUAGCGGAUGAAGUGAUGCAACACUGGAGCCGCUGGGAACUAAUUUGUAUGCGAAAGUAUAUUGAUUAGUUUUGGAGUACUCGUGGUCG;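 note: selection with 25 µg/mL kanamycin versus none on LB agar overnight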
condition info: 37 °C
Just the number, please.

Any idea what self-splicing fitness (ln) was measured for CCUAAGCAAUAUUACGGUGC ?
-2.19

Any idea what self-splicing fitness (ln) was measured for AGCGAGCAAUAUUACGAUCA ?
-2.08

Any idea what self-splicing fitness (ln) was measured for AGACAGCAAUAUUACGCGGC ?
-2.15

Any idea what self-splicing fitness (ln) was measured for AGGAAGCAAUAUUACGGACU ?
-0.668

Any idea what self-splicing fitness (ln) was measured for GAAAAGCAAUAUUACGUAAG ?
-0.733

Any idea what self-splicing fitness (ln) was measured for ACAGAGCAAUAUUACGAGCA ?
-2.83

Any idea what self-splicing fitness (ln) was measured for AUAUAGCAAUAUUACGCAGA ?
-1.42

Any idea what self-splicing fitness (ln) was measured for UUAGAGCAAUAUUACGUACG ?
-1.06

Continuing:
Any idea what self-splicing fitness (ln) was measured for GCUCAGCAAUAUUACGGGCG ?
-1.22

Any idea what self-splicing fitness (ln) was measured for ACCCAGCAAUAUUACGCGGC ?
-2.76

Any idea what self-splicing fitness (ln) was measured for UUUAAGCAAUAUUACGAAUU ?
-1.58

Any idea what self-splicing fitness (ln) was measured for CGCGAGCAAUAUUACGAUAC ?
-2.56

Any idea what self-splicing fitness (ln) was measured for GCCUAGCAAUAUUACGGCCG ?
-2.37

Any idea what self-splicing fitness (ln) was measured for AGUUAGCAAUAUUACGAAUC ?
-2.03

Any idea what self-splicing fitness (ln) was measured for AGACAGCAAUAUUACGAGGU ?
-1.87

Any idea what self-splicing fitness (ln) was measured for CAUGAGCAAUAUUACGAGAC ?
-1.35

Any idea what self-splicing fitness (ln) was measured for UGGCAGCAAUAUUACGGCUG ?
-2.38

Any idea what self-splicing fitness (ln) was measured for AGGGAGCAAUAUUACGUUGG ?
-2.5

Any idea what self-splicing fitness (ln) was measured for GCCGAGCAAUAUUACGGGGU ?
-2.56

Any idea what self-splicing fitness (ln) was measured for CGGCAGCAAUAUUACGCGCG ?
-1.54

Any idea what self-splicing fitness (ln) was measured for UUUAAGCAAUAUUACGAUCG ?
0.237

Any idea what self-splicing fitness (ln) was measured for AUUUAGCAAUAUUACGAGGU ?
-1.91

Any idea what self-splicing fitness (ln) was measured for GCGUAGCAAUAUUACGAAGU ?
-1.11

Any idea what self-splicing fitness (ln) was measured for GAAAAGCAAUAUUACGUGUA ?
-0.56

Any idea what self-splicing fitness (ln) was measured for UCGCAGCAAUAUUACGCUUA ?
-0.94

Any idea what self-splicing fitness (ln) was measured for UUCGAGCAAUAUUACGUGAG ?
-0.0842

Any idea what self-splicing fitness (ln) was measured for CCCAAGCAAUAUUACGUACA ?
-3.39

----------
Recorded self-splicing fitness (ln) values for a group of sequences are listed next.
protocol notes: self-splicing fitness, log relative to wild type (ln ratio); higher = more splicing; Tetrahymena group I intron in knt gene, E. coli kanamycin selection, DiMSum; sequences stand for … in CUCUCU…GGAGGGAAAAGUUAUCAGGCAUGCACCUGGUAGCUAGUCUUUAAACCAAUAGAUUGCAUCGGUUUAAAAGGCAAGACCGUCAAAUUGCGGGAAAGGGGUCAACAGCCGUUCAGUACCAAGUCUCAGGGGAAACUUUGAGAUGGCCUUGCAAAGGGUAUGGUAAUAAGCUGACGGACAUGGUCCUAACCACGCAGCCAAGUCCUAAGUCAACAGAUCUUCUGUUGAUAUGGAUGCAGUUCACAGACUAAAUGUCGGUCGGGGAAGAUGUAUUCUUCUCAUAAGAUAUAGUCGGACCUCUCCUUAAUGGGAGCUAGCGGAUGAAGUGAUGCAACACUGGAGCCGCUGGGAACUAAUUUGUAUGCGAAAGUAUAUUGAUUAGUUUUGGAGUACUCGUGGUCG
condition info: 30 °C
Just the number, please.

Solved cases (2 shown):
Any idea what self-splicing fitness (ln) was measured for GCGCAGCAAUAUUACGAAGG ?
-1.79

Any idea what self-splicing fitness (ln) was measured for AAGCAGCAAUAUUACGAAAG ?
-3.93

Continuing:
Any idea what self-splicing fitness (ln) was measured for CCCCAGCAAUAUUACGUAUG ?
-3.71

Any idea what self-splicing fitness (ln) was measured for GCGAAGCAAUAUUACGCAUC ?
-4.03

Any idea what self-splicing fitness (ln) was measured for AAACAGCAAUAUUACGAAUU ?
-2.36

----------
protocol notes: self-splicing fitness, log relative to wild type (ln ratio); higher = more splicing; Tetrahymena group I intron in knt gene, E. coli kanamycin selection, DiMSum; sequences stand for … in CUCUCU…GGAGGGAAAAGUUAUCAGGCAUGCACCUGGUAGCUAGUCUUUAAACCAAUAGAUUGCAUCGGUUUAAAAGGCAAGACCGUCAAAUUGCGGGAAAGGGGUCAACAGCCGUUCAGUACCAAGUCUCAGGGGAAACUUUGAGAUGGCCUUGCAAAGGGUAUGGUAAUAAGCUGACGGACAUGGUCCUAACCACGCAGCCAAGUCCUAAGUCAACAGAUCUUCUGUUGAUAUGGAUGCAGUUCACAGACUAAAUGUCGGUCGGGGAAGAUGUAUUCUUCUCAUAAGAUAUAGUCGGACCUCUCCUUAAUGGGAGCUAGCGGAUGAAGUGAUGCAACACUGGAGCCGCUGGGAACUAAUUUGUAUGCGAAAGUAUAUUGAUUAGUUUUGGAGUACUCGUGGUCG
condition info: 37 °C
Recorded self-splicing fitness (ln) values for a group of sequences are listed next.
Just the number, please.

Solved cases (6 shown):
Any idea what self-splicing fitness (ln) was measured for AUUUAGCAAUAUUACGACCA ?
-0.373

Any idea what self-splicing fitness (ln) was measured for UAUUAGCAAUAUUACGGCAU ?
-0.541

Any idea what self-splicing fitness (ln) was measured for CCAAAGCAAUAUUACGGCCA ?
-2.76

Any idea what self-splicing fitness (ln) was measured for UUCCAGCAAUAUUACGGUAG ?
0.438

Any idea what self-splicing fitness (ln) was measured for UCCUAGCAAUAUUACGGAAA ?
-2.51

Any idea what self-splicing fitness (ln) was measured for ACAGAGCAAUAUUACGCGUC ?
-2.07

Continuing:
Any idea what self-splicing fitness (ln) was measured for GCCUAGCAAUAUUACGGGGG ?
-1.34

Any idea what self-splicing fitness (ln) was measured for GUCUAGCAAUAUUACGGCCU ?
-1.19

Any idea what self-splicing fitness (ln) was measured for UGUGAGCAAUAUUACGUAAG ?
-0.85

Any idea what self-splicing fitness (ln) was measured for GUCUAGCAAUAUUACGAUAA ?
0.55

Any idea what self-splicing fitness (ln) was measured for UAUUAGCAAUAUUACGGGAA ?
-1.45

Any idea what self-splicing fitness (ln) was measured for UCUUAGCAAUAUUACGUCUC ?
-2.39

Any idea what self-splicing fitness (ln) was measured for AUACAGCAAUAUUACGUGGU ?
-2.27

----------
protocol notes: self-splicing fitness, log relative to wild type (ln ratio); higher = more splicing; Tetrahymena group I intron in knt gene, E. coli kanamycin selection, DiMSum; sequences stand for … in CUCUCU…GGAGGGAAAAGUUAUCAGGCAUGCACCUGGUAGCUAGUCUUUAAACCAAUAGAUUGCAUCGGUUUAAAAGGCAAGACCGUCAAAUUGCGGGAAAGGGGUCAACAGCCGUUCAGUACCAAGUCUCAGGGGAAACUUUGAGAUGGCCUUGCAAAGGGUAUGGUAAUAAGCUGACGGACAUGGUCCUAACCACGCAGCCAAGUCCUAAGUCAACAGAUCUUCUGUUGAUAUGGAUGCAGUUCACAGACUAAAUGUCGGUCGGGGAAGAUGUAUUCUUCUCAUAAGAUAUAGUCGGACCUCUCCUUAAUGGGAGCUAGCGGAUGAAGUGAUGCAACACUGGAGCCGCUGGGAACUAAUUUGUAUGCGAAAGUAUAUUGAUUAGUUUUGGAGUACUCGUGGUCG
condition info: 37 °C
Consider the following partition of reported self-splicing fitness (ln) into named classes: category 1 (below -2), category 2 (-2 to below -1), category 3 (-1 or more)

Place this sequence in its band: GAGGAGCAAUAUUACGCUAG
category 2

Place this sequence in its band: AUUUAGCAAUAUUACGCACU
category 3

Place this sequence in its band: UAGCAGCAAUAUUACGCACC
category 3

Continuing:
Place this sequence in its band: UGUGAGCAAUAUUACGGCAA
category 2

Place this sequence in its band: GUGCAGCAAUAUUACGAGGG
category 2

Place this sequence in its band: GACAAGCAAUAUUACGUAUG
category 2
